meta.source: ChEMBL document CHEMBL1137018

# Test: Tmax in human at 400 mg, po bid from day 11 to day 20 pretreated with placebo from day 1 to day 3 followed by washout from day 4 to day 10
# Type: ADME, organism-based
# Reported conditions: in vivo

# Molecule, Units symbol, Tmax
measured = [
    ("CC(C)c1nc(CN(C)C(=O)N[C@H](C(=O)N[C@@H](Cc2ccccc2)C[C@H](O)[C@H](Cc2ccccc2)NC(=O)OCc2cncs2)C(C)C)cs1 [RITONAVIR]", "h", 1),
]

* * *

# Test: Cmax in human at 100 mg, po bid from day 11 to day 20 pretreated with voriconazole 400 mg, po bid on day 1 and 200 mg, po bid on day 2 and 3 followed by washout from day 4 to day 10
# Assay type: ADME, organism-based
# Set-up: dose 100 mg, route oral
# Reported conditions: in vivo

# Compound, Units symbol, Cmax
data = [
    ("CC(C)c1nc(CN(C)C(=O)N[C@H](C(=O)N[C@@H](Cc2ccccc2)C[C@H](O)[C@H](Cc2ccccc2)NC(=O)OCc2cncs2)C(C)C)cs1 [RITONAVIR]", "ng/mL", 1410),
]
